# system_tested: T1, hRET.mmh (human, UniProt P07949 29-635, biotinylated in the ELISA of Example 4 (biot-hRET.mmh); not in the SPR of Example 3)
# T1 construct: also called biot-hRET.mmh; soluble monomeric human RET
# assay_comment: SPR Biacore T200, mAb capture, 25 C
endpoint: kon (M⁻¹ s⁻¹)
Reply numerically in M⁻¹ s⁻¹, unit not repeated.

kon reading for H4H8062P (antibody, human IgG4, V domains shown, human IgG4 Fc (H4H prefix)) VH: EVQLVESGGGLVQPGGSLRLSCSVSGFIFKNYAMRWVRQAPGKGLEWVSGISGSGGITYYADSVRGRVTISRDNSKNTLDLQMTNLRAEDTAVYYCAKAEYSSSGAYFDYWGQGTLVTVSS VL: DIQMTQSPSSLSASVGDRVTITCRASQSIHNYLNWYLQRPGKAPKLLVYAASSLQSGVPSRFSGRGSGTDFTLTISSLQPEDFATYYCQQSYSAPYSFGQGTKLEIK : 505000

kon reading for H4H8045P (antibody, human IgG4, V domains shown, human IgG4 Fc (H4H prefix)) VH: EVQLVESGGALVQPGGSLRLSCAASGFTFSNYAMTWVRQAPGMGLEWVSGISSSGASTFYADSVKGRFTISRDNSKNTLYLQMNSLRAEDTAVYYCAKEDYWGWFDYWGQGTLVTVSS VL: DIQLTQSPSFLSASVGDRVTITCWASQDVSSYLAWYQQEPGKAPKVLIYDASTLQSGVPSRFSGSGSGTEFTLTISSLQPEDFAPYYCQQLNSYPYTFGQGTKLEIK : 279000

kon reading for H4H8085P (antibody, human IgG4, V domains shown, human IgG4 Fc (H4H prefix)) VH: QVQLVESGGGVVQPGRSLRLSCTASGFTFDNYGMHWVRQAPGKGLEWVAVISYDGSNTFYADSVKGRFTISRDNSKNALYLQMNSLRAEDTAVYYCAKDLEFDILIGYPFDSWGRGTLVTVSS VL: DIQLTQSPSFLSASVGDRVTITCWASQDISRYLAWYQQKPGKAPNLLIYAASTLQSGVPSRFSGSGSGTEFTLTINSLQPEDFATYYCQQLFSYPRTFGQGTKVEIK : 80100
